target or system: wild type transthyretin (WT-TTR) (Homo sapiens, UniProt P02766)
Construct: made in house; host or cells: E. coli BL21 (DE3), pET23a plasmid
experiment summary: WT-TTR amyloid fibril formation assay (turbidimetry, acid-induced)
Assay type: biochemical
assay setup: WT-TTR 3.6 μM, 1:1 TTR-compound stoichiometry, pH 4.4, 72 hours, 37° C., normalized to no-compound control (100%)
endpoint label: Fibril Formation (%)
Quick reminder: number only, in %, skip the unit.

- molecule: "O=C(O)CCN1C(=O)/C(=C/c2cc(F)c(O)c(F)c2)SC1=S"
  Fibril Formation (%): 32
- molecule: "O=C(O)CCN1C(=O)/C(=C/c2cc(Cl)cc(Cl)c2)SC1=S"
  Fibril Formation (%): 26

// next item, Fibril Formation (%) requested
Ask: Which Fibril Formation (%) value belongs to COc1cccc(/C=C2\SC(=S)N(C(C)C(=O)O)C2=O)c1 (stereo not shown) ?
Result: 35
